- protocol details: ATG_ISRE_CIS: Attagene CIS-FACTORIAL HepG2 Assay for human Interferon Regulatory Factor 1 (IRF1) binding to an Interferon-Stimulated Response Element (ISRE) (AID 2282948)
- condition description: HepG2 ISRE cis-reporter (Attagene), mRNA transcription readout; actives raise or lower the signal
Activity calls are given as the source filed them. Rule for the calls: active = hit-call score of the fitted dose curve at least 0.9, where 1 is the maximum; inactive = score below 0.9.
Write down one outcome, taken from active, inactive

For orientation, consider the following solved cases.
molecule	qualitative label
CCCCC[Si](OCC)(OCC)OCC	inactive
CC1(C)CCC(C)(C)c2cc(C(=O)Nc3ccc(C(=O)O)cc3)ccc21	active
CCCCC/C=C/C=C/C=O	inactive
CCCC1CCC(=O)O1 (stereo not drawn)	inactive
CC(=O)OCC=Cc1ccccc1	inactive
CC(C)Oc1ccccc1O	inactive

Please indicate how the test categorized CC(C#N)(CCC(=O)O)N=NC(C)(C#N)CCC(=O)O (stereo not drawn) . inactive

Param item: O=C=NC1CCC(CC2CCC(N=C=O)CC2)CC1 (stereo not drawn) inactive

Param item: BrC1CCC(Br)C(Br)CCC(Br)C(Br)CCC1Br (stereo not drawn) active

Origin of measurements: PubChem BioAssay (EPA / NIEHS)
